Every entry's value here was drawn from PubChem BioAssay (NCATS).

Assay: qHTS of pediatric cancer cell lines to identify multiple opportunities for drug repurposing: Primary screen for MG 63 (6-TG R) cells (AID 1347105); note: nearly all actives have a fitted effect of over 50% in size
Details: MG 63 (6-TG R) viability, CellTiter-Glo, 48 h; series mostly up to 46 µM
Results filed as inconclusive are left out. Activity calls are given as the source filed them. Calls come from the whole dose curve; as a rule, active = well fitted cell-killing curve with a large enough effect; inconclusive = small, poorly fitted or top-dose-only effect; inactive = no such curve, though single readings can be large or run the other way.
Please reply with one of these outcomes: active, inactive

Exam item: Outcome? COc1nc(C)nc(Cl)c1NC1=NCCN1
Marked response: inactive

Exam item: Assay result, entry O=C1N(c2ccccc2)c2ccccc2C1(Cc1ccncc1)Cc1ccncc1 — outcome?
Marked response: inactive

Exam item: Assay result, entry COc1ccc2[nH]cc(CCNC(C)=O)c2c1 — outcome?
Marked response: inactive

Exam item: Assay outcome for CN1CCC(=C2c3ccccc3C=Cc3ccccc32)CC1 : what was it?
Marked response: inactive

Exam item: Each compound tested received a call. Report the one for O=c1c(O)c(-c2ccc(O)c(O)c2)oc2cc(O)cc(O)c12 .
Marked response: inactive

Exam item: Recorded test outcome, item CN1CCN(C2=Nc3cc(Cl)ccc3Nc3ccccc32)CC1
Marked response: inactive

Exam item: Give the logged outcome of this assay for the following compound: Cn1ccc2cc3c(cc21)CCN3C(=O)Nc1cccnc1
Marked response: inactive

Exam item: How did this test come out for CNCCCC12CCC(c3ccccc31)c1ccccc12 ?
Marked response: active
